Assay: Plasma concentration in FVB mouse at 3 mg/kg, po at 3 hrs
Assay type: ADME, organism-based
Parameters: dose 3 mg/kg, route oral
compounds and their reported concentration at 3 h
endpoint label: concentration at 3 h (nM)

test smiles | measurement units | measurement
O=S(=O)(c1ccc(C(F)(F)F)nc1)N1c2ccc(F)cc2-c2n[nH]cc2[C@H]1C1CC1 | nM | 79
O=S(=O)(c1ccc(C(F)(F)F)cc1)N1c2cc(F)c(F)cc2-c2n[nH]cc2[C@H]1C1CC1 | nM | 190

----------
Test system: Liver microsomes
Experiment: Glucuronidation metabolism in human liver microsomes assessed as compound remaining
Format: ADME, Microsome
Label 1 (yes) when Stability is at or above 80%; otherwise label 0 (no).

test smiles | label class
O=S(=O)(c1ccc(Cl)cc1)N1Cc2c[nH]nc2-c2ccccc21 | 0 (no)
O=S(=O)(c1ccc(Cl)cc1)N1Cc2c[nH]nc2-c2cc(F)ccc21 | 0 (no)
CC(C)[C@H](O)C(=O)N[C@@H](C)C(=O)N[C@@H]1C(=O)N(C)CCc2ccccc21 | 1 (yes)
NC(=O)[C@@H](CCC(F)(F)F)N(Cc1ccc(-c2ncon2)cc1F)S(=O)(=O)c1ccc(Cl)cc1 | 1 (yes)
C[C@@H]1c2c[nH]nc2-c2cc(F)ccc2N1S(=O)(=O)c1ccc(F)cc1 | 0 (no)
O=S(=O)(c1ccc(C(F)(F)F)cc1)N1c2ccccc2-c2n[nH]cc2[C@H]1C1CC1 | 1 (yes)
